Recorded kobs /[I] human thrombin for the following compounds
- test.target: human thrombin (Homo sapiens, UniProt P00734)
- Construct: bovine trypsin, human thrombin
- Type: biochemical
- experimental.parameters: Table III; enzyme 0.06-0.5 μM, inhibitor 0.25-42 μM, 9% DMSO, 25° C.; NI = no inhibition
# unit: M⁻¹ s⁻¹ | format: bare number

Take a look at these entries with their results.
> print(dat)
                                   compound                               test.target  result
1  CC(C)C(NC(=O)CCC(=O)O)C(=O)N1CCCC1C(=O)NC(CCCCN)P(=O)(Oc1ccccc1)Oc1ccccc1 (mixture of isomers)  human thrombin (Homo sapiens, UniProt P00734)     3.4
2  NCCCCCC(NC(=O)[C@@H]1CCCN1C(=O)CC(c1ccccc1)c1ccccc1)P(=O)(Oc1ccccc1)Oc1ccccc1 (stereo partly drawn)  human thrombin (Homo sapiens, UniProt P00734)     224
3  NCCCCC(NC(=O)C1CCCN1C(=O)CNS(=O)(=O)Cc1ccccc1)P(=O)(Oc1ccccc1)Oc1ccccc1 (mixture of isomers)  human thrombin (Homo sapiens, UniProt P00734)     649
4  Cl.NCCCCCC(NC(=O)[C@@H]1CCCN1C(=O)c1ccccc1Oc1ccccc1)P(=O)(Oc1ccccc1)Oc1ccccc1 (stereo partly drawn)  human thrombin (Homo sapiens, UniProt P00734)      57

Briefly, kobs /[I] human thrombin measured for Cl.NCCCCC(NC(=O)OCc1ccccc1)P(=O)(Oc1ccccc1)Oc1ccccc1 (stereo not drawn) : 17
